System: DU-145 prostate
Test: NCI tumour cell line growth inhibition, 48 h
outcomeMeasure: GI50

• CC(=O)OC1CC(C)c2c(Cl)ncnc21 (stereo unspecified) = > 100 µM
• O=c1cc(-c2ccccc2)nc2cc(-c3ccco3)[nH]n12 = 19.5 µM
• CCCCC/C=C\C/C=C/CCCCCCCCNC(=O)Nc1ccc([N+](=O)[O-])cc1 = 40.1 µM
• COc1ccc2c(c1)c(-c1nc(-c3cn(C)c4ncccc34)cs1)cn2CCCCN1CCOCC1 = 1.71 µM
• c1ccc(C2=NN[C@H](c3cn(-c4ccccc4)nc3-c3ccccc3)C2)cc1 = 71.8 µM
• CCCN(CCC)c1ccc(/C=N/NC(=O)c2cccnc2)cc1 = 36.1 µM
• CN1CCN(CCCOc2ccc3nc(Nc4ccc(C(F)(F)F)c(Cl)c4)ccc3c2)CC1 = 1.58 µM
• CCCC(=O)Nc1ncnc2c1ncn2C1OC2COP(=O)(O)OC2C1OC(=O)CCC (stereo unspecified) = > 1000 µM
• C(=C\c1nc2ccccc2s1)/c1ccc(N2CCOCC2)s1 = 48.8 µM
• CC#CC(=O)N[C@H]1CCCN(c2c(F)cc(C(N)=O)c3[nH]c(C)c(C)c23)C1 = 26.1 µM
• CNC(=O)c1c(NC(=O)c2ccc(C(C)C)cc2)sc2c1CCC(=O)C2 = 3.25 µM
